Biological target: human STING WT (R232)
Assay: Human STING HTRF binding assay (competitive, Cisbio 64BDSTGPEG)
Settings: 6His tagged human STING WT R232, competition with STING ligand-d2
Excerpt: Binders to human STING WT (R232) were identified using a competitive HTRF assay format (Cisbio 64BDSTGPEG), which uses d2-labeled STING ligand, a 6His tagged human STING protein, and an anti 6His Cryptate-labeled antibody. Compounds compete with the STING ligand-d2 and thereby prevents FRET from occurring, which can be measured by an EnVision™ reader (PerkinElmer). […]
testReadout: pIC50
One number for each entry, as −log10 of the molar value.

molecule: COc1nn(CC(C)(C)O)cc1-n1cc2c(-c3nc(-c4ccc(C(N)=O)cc4OC(F)(F)F)n(C)c3C3CC3)cccc2n1 [Example 11]
pIC50: 7.37
//
molecule: COc1nn(C)cc1-n1cc2c(-c3nc(-c4ccc(C(=O)N(C)C)cc4OC(F)(F)F)n(C)c3C3CC3)cccc2n1 [Example 3]
pIC50: 6.91
//
molecule: CCOc1nn(C)cc1-n1cc2c(-c3nc(-c4ccc(C(N)=O)cc4OC(F)(F)F)n(C)c3C3CC3)cccc2n1 [Example 4]
pIC50: 7.39

Hey, can you go through the list below and give me pIC50 for every item?
1. Cn1nc(-n2cc3c(-c4nc(-c5ccc(P(C)(C)=O)cc5OC(F)(F)F)n(C)c4C4CC4)cccc3n2)cc1C(F)(F)F [Example 20]
2. Cn1nc(-n2cc3c(-c4nc(-c5ccc(C(N)=O)cc5OC(F)(F)F)n(C)c4C4CC4)cccc3n2)cc1C(F)(F)F [Example 8]
3. COc1nn(C2CC2)cc1-n1cc2c(-c3nc(-c4ccc(C(N)=O)cc4OCC(F)F)n(C)c3C3CC3)cccc2n1 [Example 6]

[7.31, 7.07, 7.80]

###

Provide the reported IC50 of each item.
System: STING
Construct: from tissue; host or cells: human whole blood from healthy donors
Test: Human whole blood assay (HWBA), cGAMP-stimulated IFNα2α production
Type: cell-based
Settings: human whole blood stimulated by cGAMP
One number for each entry, in nM.

// below: answered molecules
structureSmilesString: CC[P@](C)(=O)c1ccc(-c2nc(-c3cccc4nn(-c5cc(C(F)(F)F)n(C)n5)cc34)c(C3CC3)n2C)c(OC(F)(F)F)c1
measureUnit: nM
IC50: 78

structureSmilesString: CNC(=O)c1ccc(-c2nc(-c3cccc4nn(-c5cn(C6CC6)nc5OC)cc34)c(C3CC3)n2C)c(OC(F)(F)F)c1
measureUnit: nM
IC50: 82

Record Cn1nc(-n2cc3c(-c4nc(-c5ccc(C(N)=O)cc5OC(F)(F)F)n(C)c4C4CC4)cccc3n2)cc1C(F)(F)F : what is its IC50 with STING?
80
